- Target Desc: human macrophage elastase (HME/hMMP-12) (Homo sapiens, UniProt P39900)
- Sequence (P39900 106-470): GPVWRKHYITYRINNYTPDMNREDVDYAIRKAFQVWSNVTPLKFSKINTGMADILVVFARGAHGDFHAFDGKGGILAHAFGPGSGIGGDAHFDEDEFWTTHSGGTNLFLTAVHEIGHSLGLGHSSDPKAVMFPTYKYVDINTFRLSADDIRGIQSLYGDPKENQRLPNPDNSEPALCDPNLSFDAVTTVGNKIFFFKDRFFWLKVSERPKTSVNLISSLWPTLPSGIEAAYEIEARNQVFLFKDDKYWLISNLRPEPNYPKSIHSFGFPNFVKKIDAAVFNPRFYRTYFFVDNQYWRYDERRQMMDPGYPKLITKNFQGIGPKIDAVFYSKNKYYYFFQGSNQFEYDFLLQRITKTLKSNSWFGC
- Assay Info: In vitro HME inhibition test (standard or high-sensitivity)
- Test Parameters: in some cases mean values, rounded to two significant figures
- Description: The potency of the compounds according to the invention with respect to HME (MMP-12) is determined in an in vitro inhibition test. The HME-mediated amidolytic cleavage of a suitable peptide substrate leads to an increase in fluorescent light therein. The signal intensity of the fluorescent light is directly proportional to the enzyme activity. […]
Reported Metric: IC50

Examples with their reported IC50 follow.
# Molecule, IC50
measured = [
    ("O=C(CC(CCn1nnc2ccccc2c1=O)C(=O)O)c1cc2cc(OCCC3CCOCC3)ccc2o1 (racemic)", "4 nM"),
    ("O=C(CC(CCn1nnc2ccccc2c1=O)C(=O)O)c1noc2cc(OCc3ccc(F)cc3)ccc12 (racemic) [Example 136]", "0.63 nM"),
    ("CCCCOc1ccc2cc(C(=O)CC(CCn3nnc4ccccc4c3=O)C(=O)O)oc2c1 (racemic) [Example 61]", "4.6 nM"),
    ("O=C(CC(CCn1nnc2ccccc2c1=O)C(=O)O)c1cc2cc(OCc3ccc(Cl)c(Cl)c3)ccc2o1 (racemic) [Example 25]", "0.2 nM"),
    ("O=C(CC(CCn1nnc2ccccc2c1=O)C(=O)O)c1noc2cc(OCCC3CCCCC3)ccc12 (racemic) [Example 141]", "0.12 nM"),
]

Reported IC50 of CCCCCCCOc1ccc2cc(C(=O)CC(CCn3nnc4ccccc4c3=O)C(=O)O)oc2c1 (single isomer, unassigned; (-)) [Example 68] : 890 nM

Reported IC50 of NC(=O)c1cccc(COc2ccc3oc(C(=O)CC(CCn4nnc5ccccc5c4=O)C(=O)O)cc3c2)c1 (single isomer, unassigned; (-)) [Example 33] : 350 nM
